# target-or-system: T1, recombinant human IL-23R/Fc chimera (R&D Systems) (human, UniProt Q5VWK5 24-353)
# T1 construct: bought; also called human IL-23R/Fc fusion protein; rhIL23RFc
# T1 sequence (looked up): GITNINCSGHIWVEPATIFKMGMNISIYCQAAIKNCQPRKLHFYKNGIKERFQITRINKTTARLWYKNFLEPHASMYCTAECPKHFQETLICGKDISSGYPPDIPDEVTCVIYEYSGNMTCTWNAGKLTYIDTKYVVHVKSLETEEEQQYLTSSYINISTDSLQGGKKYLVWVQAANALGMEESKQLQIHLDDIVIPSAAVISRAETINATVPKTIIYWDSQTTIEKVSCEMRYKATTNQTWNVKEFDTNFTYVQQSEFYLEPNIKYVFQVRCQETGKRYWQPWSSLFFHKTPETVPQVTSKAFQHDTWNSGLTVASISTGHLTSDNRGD
# assay-details: SPR (Biacore), captured IL-23R/Fc, ATRIMER
reported-endpoint: kon (M⁻¹ s⁻¹)
Respond numerically; units are M⁻¹ s⁻¹ and should not be typed.

Some binders with known kon results, for comparison:
{"binder": "B9B ATRIMER (designed binder, Forms a homotrimer through the tetranectin coiled coil; one protomer is given., also called 056-41.B9B) EPPTQKPKKIVNAKKDVVNTKMFEELKSRLDTLAQEVALLKEQQALQTVCLKGTKVHMKCFLAFTQTKTFHEASEDCISRGGTLSTPQTGSENDALYEYLRQSVGNEAEIWLGLNAPPDLGLWVDMTGARIAYKNWETEITAQPDGGWGVWGENCAVLSGAANGKWFDKRCRDQLPYICQFGIV", "reported-endpoint": "kon", "reported-value": 92800}
{"binder": "101-51-1A5 ATRIMER (designed binder) EPPTQKPKKIVNAKKDVVNTKMFEELKSRLDTLAQEVALLKEQQALQTVCLKGTKVHMKCFLAFTQTKTFHEASEDCISRGGTLSTPQTGSENDALYEYLRQSVGNEAEIWLGLNGSALTNTWVDMTGARIAYKNWENGHEPQPRGGFGYFGENCAVLSGAANGKWFDKRCRDQLPYICQFGIV", "reported-endpoint": "kon", "reported-value": 495000}
{"binder": "A9E ATRIMER (designed binder) EPPTQKPKKIVNAKKDVVNTKMFEELKSRLDTLAQEVALLKEQQALQTVCLKGTKVHMKCFLAFTQTKTFHEASEDCISRGGTLSTPQTGSENDALYEYLRQSVGNEAEIWLGLNGSALTNTWVDMTGARIAYKNWETEITAQPDGGLGYWGENCAVLSGAANGKWFDKRCRDQLPYICQFGIV", "reported-endpoint": "kon", "reported-value": 172000}

### Prompt Input 101-113-6C102 ATRIMER (designed binder, ATRIMER is a homotrimer; one protomer is given., not shown: C-terminal purification tag: Myc/His6 (pANA4) or HA-StrepII (pANA10)) EPPTQKPKKIVNAKKDVVNTKMFEELKSRLDTLAQEVALLKEQQALQTVCLKGTKVHMKCFLAFTQTKTFHEASEDCISRGGTLSTPQTGSENDALYEYLRQSVGNEAEIWLGLNGSNVTQTWVDMTGARIAYKNWEPPPPHHPQGGFGVFGENCAVLSGAANGKWFDKRCRDQLPYICQFGIV , output reported kon.
### Response 271000

### Prompt Input A4A ATRIMER (designed binder, Forms a homotrimer through the tetranectin coiled coil; one protomer is given., also called 001-87.A4A) EPPTQKPKKIVNAKKDVVNTKMFEELKSRLDTLAQEVALLKEQQALQTVCLKGTKVHMKCFLAFTQTKTFHEASEDCISRGGTLSTPQTGSENDALYEYLRQSVGNEAEIWLGLNWTLAKNLWVDMTGARIAYKNWETEITAQPDGGLFGRGENCAVLSGAANGKWFDKRCRDQLPYICQFGIV , output reported kon.
### Response 50600

### Prompt Input 101-113-6C108 ATRIMER (designed binder) EPPTQKPKKIVNAKKDVVNTKMFEELKSRLDTLAQEVALLKEQQALQTVCLKGTKVHMKCFLAFTQTKTFHEASEDCISRGGTLSTPQTGSENDALYEYLRQSVGNEAEIWLGLNGSALTNTWVDMTGARIAYKNWEPPPPHHPMGGFGVFGENCAVLSGAANGKWFDKRCRDQLPYICQFGIV , output reported kon.
### Response 623000

### Prompt Input C3C ATRIMER (designed binder, Forms a homotrimer through the tetranectin coiled coil; one protomer is given., also called 001-89.C3C) EPPTQKPKKIVNAKKDVVNTKMFEELKSRLDTLAQEVALLKEQQALQTVCLKGTKVHMKCFLAFTQTKTFHEASEDCISRGGTLSTPQTGSENDALYEYLRQSVGNEAEIWLGLNANRRRTMWVDMTGARIAYKNWETEITAQPDGGMGVWGENCAVLSGAANGKWFDKRCRDQLPYICQFGIV , output reported kon.
### Response 57900

### Prompt Input 101-51-1A7 ATRIMER (designed binder) EPPTQKPKKIVNAKKDVVNTKMFEELKSRLDTLAQEVALLKEQQALQTVCLKGTKVHMKCFLAFTQTKTFHEASEDCISRGGTLSTPQTGSENDALYEYLRQSVGNEAEIWLGLNGSALTNTWVDMTGARIAYKNWERPPLYQPGGGWGVFGENCAVLSGAANGKWFDKRCRDQLPYICQFGIV , output reported kon.
### Response 419000

### Prompt Input 101-80-5H3 ATRIMER (designed binder, ATRIMER is a homotrimer; one protomer is given., one residue deleted from Loop 4 (-GVFG); the GlyGly to AlaAla change; not shown: C-terminal purification tag: Myc/His6 (pANA4) or HA-StrepII (pANA10)) EPPTQKPKKIVNAKKDVVNTKMFEELKSRLDTLAQEVALLKEQQALQTVCLKGTKVHMKCFLAFTQTKTFHEASEDCISRGGTLSTPQTGSENDALYEYLRQSVGNEAEIWLGLNGSALTNTWVDMTGARIAYKNWEPPAPYHPMAAGVFGENCAVLSGAANGKWFDKRCRDQLPYICQFGIV , output reported kon.
### Response 50500

### Prompt Input 101-54-4B10 ATRIMER (designed binder, ATRIMER is a homotrimer; one protomer is given., not shown: C-terminal purification tag: Myc/His6 (pANA4) or HA-StrepII (pANA10)) EPPTQKPKKIVNAKKDVVNTKMFEELKSRLDTLAQEVALLKEQQALQTVCLKGTKVHMKCFLAFTQTKTFHEASEDCISRGGTLSTPQTGSENDALYEYLRQSVGNEAEIWLGLNGSALTNTWVDMTGARIAYKNWERPPLYQPGGGFGYFGENCAVLSGAANGKWFDKRCRDQLPYICQFGIV , output reported kon.
### Response 479000

### Prompt Input 4G8 ATRIMER (designed binder, Forms a homotrimer through the tetranectin coiled coil; one protomer is given., made in E. coli; also called 001-69.4G8; ATRIMER complex 4G8) EPPTQKPKKIVNAKKDVVNTKMFEELKSRLDTLAQEVALLKEQQALQTVCLKGTKVHMKCFLAFTQTKTFHEASEDCISRGGTLSTPQTGSENDALYEYLRQSVGNEAEIWLGLNGSRRSGVWVDMTGARIAYKNWETEITAQPDGGFGVFGENCAVLSGAANGKWFDKRCRDQLPYICQFGIV , output reported kon.
### Response 109000
